# collection of pIC50 values tested on PI3K α (Homo sapiens (Human))
# Sequence (P42336 whole entry): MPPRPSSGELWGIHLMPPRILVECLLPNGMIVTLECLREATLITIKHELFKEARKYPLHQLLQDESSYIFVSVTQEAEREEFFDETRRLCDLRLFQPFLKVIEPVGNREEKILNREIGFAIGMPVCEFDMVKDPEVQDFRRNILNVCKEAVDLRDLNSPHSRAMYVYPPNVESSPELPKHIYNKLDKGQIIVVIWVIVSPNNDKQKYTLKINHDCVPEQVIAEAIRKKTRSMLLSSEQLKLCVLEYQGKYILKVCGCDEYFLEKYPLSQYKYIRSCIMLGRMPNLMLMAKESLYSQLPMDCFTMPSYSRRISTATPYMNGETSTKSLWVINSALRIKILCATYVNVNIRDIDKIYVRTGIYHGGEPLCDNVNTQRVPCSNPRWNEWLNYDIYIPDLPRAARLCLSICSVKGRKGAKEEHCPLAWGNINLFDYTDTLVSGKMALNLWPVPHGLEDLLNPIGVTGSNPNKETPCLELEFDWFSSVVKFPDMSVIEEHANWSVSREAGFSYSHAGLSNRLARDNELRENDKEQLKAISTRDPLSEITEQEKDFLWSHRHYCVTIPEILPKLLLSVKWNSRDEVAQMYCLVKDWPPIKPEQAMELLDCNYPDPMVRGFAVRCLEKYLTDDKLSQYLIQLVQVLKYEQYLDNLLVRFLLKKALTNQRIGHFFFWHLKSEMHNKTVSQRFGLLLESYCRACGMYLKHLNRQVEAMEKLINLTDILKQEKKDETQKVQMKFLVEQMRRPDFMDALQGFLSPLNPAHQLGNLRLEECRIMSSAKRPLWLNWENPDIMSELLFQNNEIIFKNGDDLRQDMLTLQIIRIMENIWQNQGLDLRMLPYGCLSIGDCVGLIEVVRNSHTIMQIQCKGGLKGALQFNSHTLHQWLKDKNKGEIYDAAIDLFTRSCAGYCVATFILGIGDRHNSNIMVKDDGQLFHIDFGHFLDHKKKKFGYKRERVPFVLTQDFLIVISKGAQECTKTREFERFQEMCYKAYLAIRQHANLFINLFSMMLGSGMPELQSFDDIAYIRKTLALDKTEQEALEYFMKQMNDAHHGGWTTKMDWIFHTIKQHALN
# Sequence (P27986 whole entry partner): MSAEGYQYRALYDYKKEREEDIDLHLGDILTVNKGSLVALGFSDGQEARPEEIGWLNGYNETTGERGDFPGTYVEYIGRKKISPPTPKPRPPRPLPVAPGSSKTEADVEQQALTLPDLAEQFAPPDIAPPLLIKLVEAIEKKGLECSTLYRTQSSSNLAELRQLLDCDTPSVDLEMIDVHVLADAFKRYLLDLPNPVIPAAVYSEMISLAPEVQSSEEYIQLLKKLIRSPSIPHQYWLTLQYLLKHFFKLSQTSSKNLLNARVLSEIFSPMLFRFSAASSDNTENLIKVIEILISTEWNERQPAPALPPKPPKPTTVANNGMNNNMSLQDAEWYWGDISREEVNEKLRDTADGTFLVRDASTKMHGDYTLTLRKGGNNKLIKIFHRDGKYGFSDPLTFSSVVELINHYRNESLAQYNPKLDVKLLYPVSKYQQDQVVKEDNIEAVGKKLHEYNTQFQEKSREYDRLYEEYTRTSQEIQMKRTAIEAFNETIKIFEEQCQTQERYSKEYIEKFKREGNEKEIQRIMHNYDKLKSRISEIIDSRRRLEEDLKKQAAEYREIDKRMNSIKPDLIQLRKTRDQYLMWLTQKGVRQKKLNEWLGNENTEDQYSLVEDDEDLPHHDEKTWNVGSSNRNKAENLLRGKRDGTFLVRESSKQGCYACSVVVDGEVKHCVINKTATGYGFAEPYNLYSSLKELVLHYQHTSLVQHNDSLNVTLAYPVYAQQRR
pIC50: −log10 of the molar value.

1. O=C(c1cnc2ccc(-c3ccc(Cl)c(NS(=O)(=O)c4ccccc4)c3)cn12)N1CCOCC1    > 6.00
2. Nc1nc2cc(-c3ccc4ncc(N5CC(N6CC[C@H](O)C6)C5)nc4c3)ccc2o1    > 7.00
3. CN1CCC(N(C)c2ncnc3ccc(-c4ccc5oc(N)nc5c4)cc23)CC1    > 7.00

// lookup pIC50 for COc1ncc(-c2ccc3ncc(C(=O)N4CCOCC4)n3c2)cc1NS(=O)(=O)c1ccccc1
> 7.00

Also need Nc1nc2cc(-c3ccc4ncc(N5CC(N6CCN(CCO)CC6)C5)nc4n3)ccc2o1 , thanks.
> 7.00

What about this compound? COC(=O)N1CCN(c2cnc3ccc(-c4ccc5oc(N)nc5c4)cc3n2)CC1
> 7.00

Next up: CS(=O)(=O)N1CCN(Cc2cc3nc(-c4ccc5oc(N)nc5c4)nc(N4CCOCC4)c3s2)CC1
> 7.00

Same question for Nc1nc2cc(-c3ccc4ncc(N5CC(N6C7CCC6COC7)C5)nc4n3)ccc2o1 please.
> 5.00

And Nc1nc2cc(-c3ccc4ncnc(OC5CCOCC5)c4c3)ccc2o1 ?
> 7.00

----------
Catalogue of IC50 readings, one per entry.
Biological target: PI3K α (Homo sapiens (Human))

Some solved cases for reference:
1) C[C@@H]1CN(c2cnc3ccc(-c4ccc5oc(N)nc5c4)nc3n2)CCN1    < 100 nM
2) CN1CCN(c2cc(-c3ccnc4ccc(-c5ccc6oc(N)nc6c5)cc34)ccn2)CC1    < 100 nM
3) CCOC(=O)N1CCN(c2cnc3ccc(-c4ccc5oc(N)nc5c4)nc3n2)CC1    < 100 nM
4) Nc1nc2cc(-c3ccc4ncc(-c5ccc(N6CCOCC6)nc5)n4c3)ccc2o1    < 100 nM
5) Nc1nc2ccc(-c3ccc4nnc(-c5ccncc5)n4c3)cc2o1    < 10000 nM
6) Nc1nc2cc(-c3ccc4ncc(N5CC(N6CCN(CCO)CC6)C5)nc4c3)ccc2o1    < 100 nM

Please report the recorded IC50 for Nc1nc2cc(-c3ccc4ncc(N5CC(C(=O)NC6CC6)C5)nc4c3)ccc2o1 .
< 100 nM

Can you handle CN1CCN(c2cnc3ccc(-c4ccc5nc(N)sc5c4)cc3n2)CC1 next?
< 100 nM

Try the compound Nc1nc2cc(-c3ccc4ncc(N5CC[C@H](N6CCOCC6)C5)nc4c3)ccc2o1
< 1000 nM

----------
Below: a set of entries, each annotated with reported pIC50.
Test: PI 3-Kinase (human) HTRF assay, p110δ/p85α
Type: biochemical
Conditions: read-out: PI3K γ IC50
pIC50: −log10 of the molar value.

Worked cases, answers included:
1. CN1CCN(C(=O)C2CN(c3cnc4ccc(-c5ccc6oc(N)nc6c5)cc4n3)C2)CC1 [drawing 443]    > 5.00
2. CN1CCN([C@H]2CCN(c3cnc4ccc(-c5ccc6oc(N)nc6c5)cc4n3)C2)CC1    > 5.00
3. CC(=O)Nc1nc2ccc(-c3cc(F)c4oc(N)nc4c3)cc2s1    > 7.00
4. CN1CCN(C2CN(C(=O)c3cnc4ccc(-c5ccc6oc(N)nc6c5)cn34)C2)CC1    > 5.00
5. Nc1nc2cc(-c3ccc4[nH]nc(N)c4c3)ccc2o1    < 5.00

Which pIC50 reading was recorded for the compound C[C@H]1CN(C2CN(c3cnc4ccc(-c5ccc6oc(N)nc6c5)cc4n3)C2)CCN1 ?
> 5.00

Field entry: CC(C)N1CCN(C2CN(c3cnc4ccc(-c5ccc6oc(N)nc6c5)cc4n3)C2)CC1
> 5.00

Also need Nc1nc2cc(-c3ccc4ncc(C(=O)N5CCN(C6CC6)CC5)n4c3)ccc2o1 , thanks.
> 5.00

Can you check COc1ncc(-c2ccc3ncc(C(=O)N4CCOCC4)n3c2)cc1NS(=O)(=O)c1ccccc1F next?
> 6.00
